B1: FBF1 (parent)
chain: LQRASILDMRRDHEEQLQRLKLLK

Variants of: B1
Assay: protein stability index of a GFP-peptide fusion (GPS, HEK-293T) (PSI 1-6); higher = more stable;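 note: lentivirally expressed fusions sorted by FACS into six bins by GFP to DsRed ratio, PSI derived from sequencing read proportions per bin multiplied by bin number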
Conditions: c terminus: a fixed tail appended
property: protein stability index

// known answers, use as guide
variant-spec | property | test-value
L20S | protein stability index | 4.11
D12P | protein stability index | 3.38
R19E | protein stability index | 4.25
D12F | protein stability index | 2.74

Please fill in: protein stability index reported for Q18A = 3.7

Please fill in: protein stability index reported for M9Y = 3.61

Please fill in: protein stability index reported for D8Y = 2.72

Please fill in: protein stability index reported for R19F = 1.69

Please fill in: protein stability index reported for Q16S = 3.43

Please fill in: protein stability index reported for D8S = 3.6

Please fill in: protein stability index reported for Q2D = 3.94
